Reported values of yeast fitness for individual entries
B1: tRNA (parent)
chain: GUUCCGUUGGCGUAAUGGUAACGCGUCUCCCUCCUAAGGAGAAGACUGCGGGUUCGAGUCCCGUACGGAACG

variants of: B1; assay: yeast fitness relative to wild type (ratio to wild type); higher = fitter; tRNA-Arg(CCU), competitive growth, 37 C, YPD
Variants at the floor of the assay were thinned out.
Give a plain numeric answer without units written out.

Answered examples (2):
- GUUCCGUUGGCGUAAUGGUAAUGCGUCUCCCUCCUAAGGAGAAGACUGCGGGUUCGAGUCCCGUAUGGCACG [C22U C66U A69C]: 0.593
- GUUCCGUUGGCGUAAUGGUAACGCGGCUCCCUCCUAAGGAGAAGACCGCGAGUUCGAGUCCCGUACGGAACG [U26G U47C G51A]: 0.559

Now for the variant whose yeast fitness we want.
yeast fitness reading for GUUCCGUUGGCGUAAUGGUAACGCGUCUCCGUCCUAAGGAGAAGACUGCCGGUUCGACUCCCGUACGGAACG [C31G G50C G58C] : 0.571
